Just for reference, paper PMC5540273 is where these values come from.

System: RAF1
Experimental Context: concentration: 1 μM, replicates: in singlicate; n = 1;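 note: KINOMEscan kinase panel screen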
Some molecules, each annotated with its measured %Inh.
Use % as the unit, but write only the number.

See these solved cases before continuing.
COc1cccc(C2=C(Nc3ccc(Cl)c(C(=O)O)c3)C(=O)NC2=O)c1 [SB-390769]	14
COc1ccc(-c2coc3ccc(-c4nnc(SCc5ccc(OC)c(C(F)(F)F)c5)o4)cc23)cc1	12
CCn1c(-c2nonc2N)nc2c(C#CC(C)(C)O)ncc(OCCCCN)c21.O=C(O)C(F)(F)F.O=C(O)C(F)(F)F [GSK507274]	13
FC(F)(F)c1ccc(/C=C/c2cncnc2Nc2ccc3[nH]c(Cc4ccccc4)nc3c2)cc1 [GW709199]	46
CC(=O)N1CCN(c2ccc(Nc3nccc(-c4sc(C(C)C)nc4-c4cccc(NS(=O)(=O)c5cccc(Cl)c5)c4)n3)cn2)CC1 [GSK1660437]	86
O=C(Nc1cccc(-c2nn3ccccc3c2-c2ccnc(Nc3cccc(F)c3)n2)c1)c1c(F)ccc(F)c1Cl [GSK357952]	79

Kindly consider the entry below.
Q. For the molecule O=C(Nc1cccc(-c2nn3ncccc3c2-c2ccnc(Nc3ccccc3)n2)c1)c1c(F)cccc1F [GSK198271] , give its measured %Inh value.
A. 94.1

----------
Some compounds, each annotated with its measured %Inh.
Tested on: YANK1
Construct: gene STK32A
Experimental Context: concentration: 1 μM, replicates: in singlicate; n = 1

Q. For the compound Nc1ncc(-c2cccnc2)c2scc(-c3ccc4c(c3)CCN4C(=O)Cc3ccccc3)c12 , give its measured %Inh value.
A. 21%

Q. For the compound CN1CCN(Cc2cccc(-c3ccc4c(Nc5ccc(Oc6ccccc6)cc5)ccnc4c3)c2)CC1 , give its measured %Inh value.
A. 3%

Q. For the compound O=C(Nc1n[nH]c2nc(-c3ccc(O)cc3)ccc12)C1CC1 , give its measured %Inh value.
A. 0%

Q. For the compound Oc1cc(Nc2ccnc3cc(I)ccc23)ccc1F , give its measured %Inh value.
A. 10%

Q. For the compound Cc1ccc(S(=O)(=O)Nc2ccc(Nc3nccc(Nc4cccc5[nH]ncc45)n3)cc2)cc1 , give its measured %Inh value.
A. 0%

Q. For the compound COc1ccc(CNC(=O)NC2CCN(c3ccnc(Nc4ccc(F)cc4)n3)CC2)cc1 , give its measured %Inh value.
A. 7%

Q. For the compound CCn1c(-c2nonc2N)nc2c(C#CC(C)(C)O)ncc(OCCCCN)c21.O=C(O)C(F)(F)F.O=C(O)C(F)(F)F , give its measured %Inh value.
A. 31%

Q. For the compound COCCOCCOc1cc2ncc3c4ccc(C#N)cc4[nH]c3c2cc1OC , give its measured %Inh value.
A. 0%

----------
Some compounds, each annotated with its measured %Inh.
Tested on: PCTK3
Construct: gene CDK18
Experimental Context: concentration: 1 μM, replicates: in singlicate; n = 1
Use % as the unit, but write only the number.

COC(=O)Nc1nc2cc(Oc3ccc(NC(=O)Nc4cc(C(F)(F)F)ccc4F)cn3)ccc2[nH]1.Cl.Cl [GW681170]	16
COc1cc(Nc2nccc(-c3c(-c4cccc(NC(=O)c5c(F)cccc5F)c4)nn4ccccc34)n2)cc(OC)c1OC [GSK323521]	29
NCCCC(NC(=O)c1cc(Br)c(-c2ccnc3[nH]ccc23)s1)c1ccccc1.O=C(O)C(F)(F)F.O=C(O)C(F)(F)F (centres unmarked) [GSK1287544]	0

Q. For the compound Cn1cc(-c2ccc3c(c2)CCN3C(=O)Cc2cccc(Cl)c2)c2c(N)ncnc21 [GSK2606590] , give its measured %Inh value.
A. 7

Q. For the compound O=C(Nc1cccc(-c2nn3ncccc3c2-c2ccnc(Nc3ccccc3)n2)c1)c1c(F)cccc1F [GSK198271] , give its measured %Inh value.
A. 17

Q. For the compound CN(C)S(=O)(=O)c1cc(-c2ccc3nccc(-c4cccc(S(N)(=O)=O)c4)c3c2)cnc1N [GSK1669921] , give its measured %Inh value.
A. 0

Q. For the compound Cl.c1ccc(-c2ccc3c(Nc4ccc5[nH]ccc5c4)ccnc3c2)nc1 [GW440138] , give its measured %Inh value.
A. 28

Q. For the compound O=C(Nc1ccccc1F)NC1CCN(c2ccnc(Nc3ccc(F)cc3)n2)CC1 [GSK1379800] , give its measured %Inh value.
A. 0

Q. For the compound CSc1cccc2c(-c3ccncn3)c(-c3ccc(F)cc3)nn12 [GW514786] , give its measured %Inh value.
A. 14

Q. For the compound COC(=O)Nc1nc2ccc(Oc3ccc(NC(=O)Nc4cc(C(F)(F)F)ccc4F)cc3)cc2n1C.Cl [GW692089] , give its measured %Inh value.
A. 12

Q. For the compound CC(C)c1nc(-c2cccc(NS(=O)(=O)c3c(F)cccc3F)c2F)c(-c2ccnc(Nc3ccc(N4CCOCC4)nc3)n2)s1 [GSK2008607] , give its measured %Inh value.
A. 100

----------
Tested on: TAOK1
Experimental Context: concentration: 1 μM, replicates: in singlicate; n = 1
Quantity Measured: %Inh

Cc1ccc(S(=O)(=O)Nc2ccc(Nc3nccc(Nc4cccc5[nH]ncc45)n3)cc2)cc1 [GSK581271]	0%

Q. For the compound O=C(Nc1cccc(-c2nn3ccccc3c2-c2ccnc(Nc3cccc(C(F)(F)F)c3)n2)c1)c1c(F)cccc1F [GSK292658] , give its measured %Inh value.
A. 27%

Q. For the compound COC(=O)Nc1nc2ccc(Oc3ccc(NC(=O)Nc4cc(C(F)(F)F)ccc4F)cc3)cc2n1C.Cl [GW692089] , give its measured %Inh value.
A. 0%

Q. For the compound COc1cc(Nc2nccc(-c3c(-c4cccc(NC(=O)c5c(F)cccc5F)c4)nn4ncccc34)n2)cc(OC)c1OC [GSK327238] , give its measured %Inh value.
A. 58%

Q. For the compound CN(c1ccc(NC(=O)Nc2cc(C(F)(F)F)ccc2F)cc1)c1ccnc(Nc2ccc(S(N)(=O)=O)cc2)n1 [GW809893] , give its measured %Inh value.
A. 53%

Q. For the compound O=C(Nc1cccc(Oc2ccc3nc(NC(=O)C4CC4)cn3n2)c1)c1ccccc1C(F)(F)F , give its measured %Inh value.
A. 0%

Q. For the compound O=C(NC1CCN(c2ccnc(Nc3ccc(F)cc3)n2)C1)c1cc2ccccc2s1 (stereo not shown) [GSK1379716] , give its measured %Inh value.
A. 0%

Q. For the compound COc1cccc(C2=C(Nc3ccc(Cl)c(C(=O)O)c3)C(=O)NC2=O)c1 [SB-390769] , give its measured %Inh value.
A. 100%

Q. For the compound COC(=O)Nc1nc2cc(Oc3ccc(NC(=O)Nc4cc(C(F)(F)F)ccc4F)cn3)ccc2[nH]1.Cl.Cl [GW681170] , give its measured %Inh value.
A. 0%

Q. For the compound COCCOCCOc1cc2ncc3c4ccc(C#N)cc4[nH]c3c2cc1OC , give its measured %Inh value.
A. 0%

Q. For the compound Cc1ccc(C(=O)Nc2ccc(Nc3ccnc4cc(-c5nccs5)ccc34)cc2O)cc1.Cl [GW494702] , give its measured %Inh value.
A. 0%

Q. For the compound COc1ccc(-c2coc3ccc(-c4nnc(SCc5ccc(OC)c(C(F)(F)F)c5)o4)cc23)cc1 , give its measured %Inh value.
A. 0%

Q. For the compound COc1cccc(C(=O)Nc2cccc(Oc3ccc4nc(NC(=O)C5CC5)cn4n3)c2)c1 , give its measured %Inh value.
A. 34%

Q. For the compound Cl.c1ccc(-c2ccc3c(Nc4ccc5[nH]ncc5c4)ccnc3c2)nc1 [GW440137] , give its measured %Inh value.
A. 0%

Q. For the compound C[C@@H](Oc1cc(-n2cnc3cc(-c4ccnc(NCCS(C)(=O)=O)c4)ccc32)sc1C(N)=O)c1ccccc1Cl [GSK907232] , give its measured %Inh value.
A. 0%

Q. For the compound c1ccc(Oc2ccc(Nc3ccnc4cc(-c5ccc(CNCCN6CCOCC6)o5)ccc34)cc2)nc1 [GW567145] , give its measured %Inh value.
A. 0%

----------
Some compounds, each annotated with its measured %Inh.
Tested on: JAK3(JH1domain-catalytic)
Experimental Context: concentration: 1 μM, replicates: in singlicate; n = 1
Use % as the unit, but write only the number.

Cc1ccc(C(=O)N2CC[C@@H](O)C2)cc1-n1c(C)cc(OCc2ccc(F)cc2F)c(Br)c1=O	1
Cc1cccc(Nc2nc(N[C@H]3CCNC3)ncc2C(N)=O)c1.Cl [GSK2197149]	3
CCCCc1nn2ncccc2c1-c1ccnc(Nc2ccc(N3CCN(C)CC3)cc2)n1 [GW684941]	27

Q. For the compound O=C(Nc1cccc(Oc2ccc3nc(NC(=O)C4CC4)cn3n2)c1)c1ccccc1C(F)(F)F , give its measured %Inh value.
A. 29

Q. For the compound CC(C)c1nc(-c2cccc(NS(=O)(=O)c3c(F)cccc3F)c2F)c(-c2ccnc(Nc3ccc(N4CCOCC4)nc3)n2)s1 [GSK2008607] , give its measured %Inh value.
A. 99.6
